Assay: Toxicity liver stage against HepG2, at 10uM
Format: cell-based
Parameters: test concentration 10 uM, cell line HepG2-A16-CD81EGFP
Conditions: human, HepG2-A16-CD81EGFP cells; read-out: INHIBITION
Would you mind telling me the reported cytotoxicity at 10 µM of each entry?
Answers are plain numbers, in %.

Example cases with answers are listed next.
Cc1cc(CN2CC[C@H]3[C@H]2CCN3C)oc1C ... -0.655
Cc1csc(Nc2nccnc2C2CCCN2CC(N)=O)n1 (configuration not stated) ... -20.8
O=C(CCn1cc(Cl)cn1)N1CCC2(CC1)OCCCC2O (configuration not stated) ... -135
c1cc(CNCc2ccnc(N3CCOCC3)c2)c2c(c1)OCCCO2 ... 7.82
CC(=O)NCCC(Cc1ccccc1)c1ccco1 (configuration not stated) ... -1.24
Cn1cccc1C(=O)N1C[C@H]2CN(CC3CC3)C(=O)[C@H]2C1 ... -103

Could you tell me cytotoxicity at 10 µM for each of these compounds? They are listed below.
1. COCCNC(=O)CCC1CCN(Cc2cccc(SC)c2)CC1
2. CC(C)Nc1nc(N2CCCC2)nc2c1CN(C)CC2

1. 14.6
2. -0.376

Could you tell me cytotoxicity at 10 µM for each of these compounds? They are listed below.
1. CN1CCN(c2ccc(NS(=O)(=O)c3ccc(Cl)s3)cc2C(=O)O)CC1
2. CC(C)CC(CNC(=O)NCc1cc[nH]n1)N1CCOCC1 (configuration not stated)
3. O=C(CCN1CCCC1c1ccccn1)N1CCc2ccccc2C1 (configuration not stated)
4. CN1CCN(Cc2cccnc2)C2(CCN(c3ncccn3)C2)C1=O (configuration not stated)

1: -1.08; 2: -12.6; 3: 2.87; 4: 1.31

---

Assay: Toxicity liver stage against HepG2, at 10uM
Format: cell-based
Set-up: test concentration 10 uM, cell line HepG2-A16-CD81EGFP
Settings: human, HepG2-A16-CD81EGFP cells; read-out: INHIBITION
measurement type: cytotoxicity at 10 µM (%)
Give bare numbers, in %.

Example cases with answers are listed next.
NC(=O)c1ccc(-n2ccnc2C2CC2)cc1N1CCCC1 ... -3.82
O=S(=O)(CCN1CCN(c2ccccc2O)CC1)c1ccc(Br)cc1 ... 10.7
CN(C)C(=O)CN1CCC2(CCN(S(C)(=O)=O)CC2)C1=O ... 2.2

Could you tell me cytotoxicity at 10 µM for each of these compounds? They are listed below.
1. N#Cc1cccc(C(=O)N2CCn3c(Cn4cncn4)cnc3C2)c1
2. CC(C)c1noc(C(C)Nc2nccc(CCC(F)(F)F)n2)n1 (stereo unspecified)
3. CC(C)(C)n1ncc2c1NC(=O)CC2c1cccs1 (stereo unspecified)
4. Cn1ccnc1CN(CCO)C(=O)c1nc2ccccc2s1

7.42
2.08
3.48
4.46

---

Test: Toxicity liver stage against HepG2, at 10uM
Format: cell-based
Design: test concentration 10 uM, cell line HepG2-A16-CD81EGFP
Conditions: human, HepG2-A16-CD81EGFP cells; read-out: INHIBITION
measurement type: cytotoxicity at 10 µM (%)
Answers are plain numbers, in %.

Could you tell me cytotoxicity at 10 µM for each of these compounds? They are listed below.
1. Cc1ccc(Oc2ncccc2C(=O)N(C)CCCN(C)C)c(C)c1
2. Cc1ccc(CN2CCc3onc(C(=O)Nc4cccnc4)c3C2)o1
3. Cc1ccc2c(n1)N(C)CCN(Cc1cnn(C)c1)C2
4. Cc1ccccc1CC(=O)N1C[C@@H](O)[C@H](N2CCC(F)(F)CC2)C1
5. CCC(NC(=O)CC1CCN(CC)CC1)c1cn2cccnc2n1 (centres undefined)
6. CCOC(=O)c1coc(N2CCC(C(C)N3CCCC3)CC2)n1 (centres undefined)

1. -1.16
2. 5.15
3. 3.04
4. -14
5. 2.46
6. -1.89

Could you tell me cytotoxicity at 10 µM for each of these compounds? They are listed below.
1. CCc1nc(CCNC(=O)Nc2ccc(C(=O)NC)cc2)cs1
2. CN(Cc1ccc(Cl)c(F)c1)C(=O)c1ccncc1F
3. CS(=O)(=O)N1C[C@H]2CC[C@@H](C1)N(Cc1ccc3nsnc3c1)C2

1. 7.51
2. 3.31
3. 3.18

Could you tell me cytotoxicity at 10 µM for each of these compounds? They are listed below.
1. CCN(CC1CCOCC1)C(=O)Cn1cccc(C(F)(F)F)c1=O
2. N#Cc1cccnc1N1CCN(C(=O)c2cccs2)CC1

-10.2
10.4

Could you tell me cytotoxicity at 10 µM for each of these compounds? They are listed below.
1. CC(C)(CNc1ccc2ccc(F)cc2n1)NS(C)(=O)=O
2. CC(OCC(F)(F)F)C(=O)N1CCN(S(C)(=O)=O)CC1 (centres undefined)
3. CS(=O)(=O)NC1CCN(C(=O)COCc2ccccc2)CC1
4. Cc1ccn(-c2ccc(NCc3cccnc3N3CCCCC3)nn2)n1
5. c1cnc(N2CCCC(c3csc(Nc4cnccn4)n3)C2)nc1 (centres undefined)
6. c1ccc(Cc2noc(CN(Cc3cccs3)CC3CCCO3)n2)cc1 (centres undefined)
7. Cc1csc(N2CCN(C(=O)c3cc(Cl)c[nH]3)CC2)n1

-7.04
-1.33
-8.61
3.09
8.33
-5.77
-2.82

Could you tell me cytotoxicity at 10 µM for each of these compounds? They are listed below.
1. CSc1ccc(-c2nc(CN3CCC(C(N)=O)CC3)c(C)o2)cc1
2. CCC(=O)N1CCC(Cc2cnc(Nc3cnccn3)cn2)CC1
3. Cc1cnc(NS(=O)(=O)c2ccccc2)s1
4. O=C(Cn1ccc2ccc(Cl)cc21)NCc1ccc(C(=O)O)cc1
5. Cc1ncnc2c1CCN(C(=O)c1cccc(F)c1)CC2

1. 4.58
2. -2.19
3. -2.56
4. 7.91
5. 8.27

# cytotoxicity at 10 µM lookup, item CCc1cc(N(C)Cc2c(C)nn(C)c2C)n2nccc2n1
0.613
